# STUDY SYSTEM: purinergic P2X2 ligand-gated ion channel (Homo sapiens, UniProt Q9UBL9)
# Sequence (Q9UBL9 1-471): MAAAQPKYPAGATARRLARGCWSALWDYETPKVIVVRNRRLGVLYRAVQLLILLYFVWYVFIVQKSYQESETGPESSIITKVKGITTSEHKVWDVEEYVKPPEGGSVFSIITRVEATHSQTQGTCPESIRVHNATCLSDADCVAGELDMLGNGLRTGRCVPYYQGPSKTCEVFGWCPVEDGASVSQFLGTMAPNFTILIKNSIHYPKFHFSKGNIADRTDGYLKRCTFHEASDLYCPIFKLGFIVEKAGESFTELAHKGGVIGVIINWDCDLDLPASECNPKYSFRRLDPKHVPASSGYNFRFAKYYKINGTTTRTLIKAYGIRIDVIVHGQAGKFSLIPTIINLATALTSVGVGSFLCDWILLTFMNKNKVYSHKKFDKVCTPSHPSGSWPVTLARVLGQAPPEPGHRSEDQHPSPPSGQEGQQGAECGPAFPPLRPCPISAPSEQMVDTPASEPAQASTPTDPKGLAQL
# PROTOCOL TEXT: ATP dose response in FLIPR membrane potential assay with DiSBAC1(3)
# CONDITIONS USED: ATP dose response in P2X2 cells loaded with DiSBAC1(3); worded as 'should be approximately'
ENDPOINT: EC50

I'd like to know its EC50. The compound in question is Nc1ncnc2c1ncn2[C@@H]1O[C@H](COP(=O)(O)OP(=O)(O)OP(=O)(O)O)[C@@H](O)[C@H]1O [ATP, adenosine 5′-triphosphate]
10 to 100 nM

###

# PROTOCOL TEXT: Octanol/water partition of DiBAC and DiSBAC dyes, read by absorption spectra
# Format: physicochemical
# CONDITIONS USED: 3 mM DMSO stock partitioned in 1:1 octanol/water; water layer
Note to self: use yes only for Absorbance in Water readings below 0.06; a reading exactly at 0.06 still gets no.

These recorded examples may help you get a feel for the data.
COMPOUND: CCN1C(=O)C(=CC=Cc2c(O)n(CC)c(=S)n(CC)c2=O)C(=O)N(CC)C1=S [DiSBAC2(3)]
CLASS: yes

COMPOUND: CN1C(=O)C(=CC=Cc2c(O)n(C)c(=O)n(C)c2=O)C(=O)N(C)C1=O [DiBAC1(3)]
CLASS: no

COMPOUND: CCCCN1C(=O)C(=CC=Cc2c(O)n(CCCC)c(=S)n(CCCC)c2=O)C(=O)N(CCCC)C1=S [DiSBAC4(3)]
CLASS: yes

Report whether reported Absorbance in Water is lower than 0.06 (strictly) for CCCCN1C(=O)C(=CC=Cc2c(O)n(CCCC)c(=O)n(CCCC)c2=O)C(=O)N(CCCC)C1=O [DiBAC4(3)]
yes

How about CCCN1C(=O)C(=CC=Cc2c(O)n(CCC)c(=S)n(CCC)c2=O)C(=O)N(CCC)C1=S [DiSBAC3(3)] ?
yes

###

# PROTOCOL TEXT: Octanol/water partition of DiBAC and DiSBAC dyes, read by absorption spectra
# Format: physicochemical
# CONDITIONS USED: 3 mM DMSO stock partitioned in 1:1 octanol/water; octanol layer
ENDPOINT: Absorbance in Octanol
One number for each entry.

Record excerpt, results attached:
SMILES NOTATION: CN1C(=O)C(=CC=Cc2c(O)n(C)c(=S)n(C)c2=O)C(=O)N(C)C1=S
Absorbance in Octanol: 0.9126
--
SMILES NOTATION: CCCCN1C(=O)C(=CC=Cc2c(O)n(CCCC)c(=S)n(CCCC)c2=O)C(=O)N(CCCC)C1=S
Absorbance in Octanol: 3.226
--
SMILES NOTATION: CCCN1C(=O)C(=CC=Cc2c(O)n(CCC)c(=S)n(CCC)c2=O)C(=O)N(CCC)C1=S
Absorbance in Octanol: 4.331
--
SMILES NOTATION: CCCCN1C(=O)C(=CC=Cc2c(O)n(CCCC)c(=O)n(CCCC)c2=O)C(=O)N(CCCC)C1=O
Absorbance in Octanol: 2.854
--
SMILES NOTATION: CCN1C(=O)C(=CC=Cc2c(O)n(CC)c(=S)n(CC)c2=O)C(=O)N(CC)C1=S
Absorbance in Octanol: 2.187

Field: next compound
I'd like to know its Absorbance in Octanol. The compound in question is CN1C(=O)C(=CC=Cc2c(O)n(C)c(=O)n(C)c2=O)C(=O)N(C)C1=O
0.3104

###

# System: P2X2 cells
# PROTOCOL TEXT: FLIPR membrane potential assay, fluorescence response of dyes in P2X2 cells
# Format: cell-based
# CONDITIONS USED: P2X2 cells, FLIPR, 10 μM ATP
Note to self: use MET only for Fluorescence enhancement by 10 μM ATP stimulation (in folds) readings below 10 folds; a reading exactly at 10 folds still gets NOT MET.

These recorded examples may help you get a feel for the data.
SMILES NOTATION: CCCN1C(=O)C(=CC=Cc2c(O)n(CCC)c(=S)n(CCC)c2=O)C(=O)N(CCC)C1=S
STUDY SYSTEM: P2X2 cells
CLASS: NOT MET
//
SMILES NOTATION: CCCCN1C(=O)C(=CC=Cc2c(O)n(CCCC)c(=O)n(CCCC)c2=O)C(=O)N(CCCC)C1=O
STUDY SYSTEM: P2X2 cells
CLASS: MET
//
SMILES NOTATION: CN1C(=O)C(=CC=Cc2c(O)n(C)c(=O)n(C)c2=O)C(=O)N(C)C1=O
STUDY SYSTEM: P2X2 cells
CLASS: MET

Report whether reported Fluorescence enhancement by 10 μM ATP stimulation (in folds) is lower than 10 folds (strictly) for CCN1C(=O)C(=CC=Cc2c(O)n(CC)c(=S)n(CC)c2=O)C(=O)N(CC)C1=S
NOT MET

How about CN1C(=O)C(=CC=Cc2c(O)n(C)c(=S)n(C)c2=O)C(=O)N(C)C1=S ?
NOT MET

How about CCCCN1C(=O)C(=CC=Cc2c(O)n(CCCC)c(=S)n(CCCC)c2=O)C(=O)N(CCCC)C1=S ?
MET

###

Can you tell me Relative Values for the items I'm about to list?
# PROTOCOL TEXT: Octanol/water partition of DiBAC and DiSBAC dyes, read by absorption spectra
# Assay type: physicochemical
# CONDITIONS USED: water/octanol ratio relative to DiBAC1(3) (DiBAC dyes) or DiSBAC1(3) (DiSBAC dyes)
Numbers only.

MOLECULE: CCCCN1C(=O)C(=CC=Cc2c(O)n(CCCC)c(=O)n(CCCC)c2=O)C(=O)N(CCCC)C1=O [DiBAC4(3)]
Relative Values: 0.00021

Required: Relative Values, one value per molecule below.
1. CN1C(=O)C(=CC=Cc2c(O)n(C)c(=S)n(C)c2=O)C(=O)N(C)C1=S [DiSBAC1(3)]
2. CN1C(=O)C(=CC=Cc2c(O)n(C)c(=O)n(C)c2=O)C(=O)N(C)C1=O [DiBAC1(3)]

1. 1
2. 1

Required: Relative Values, one value per molecule below.
1. CCCN1C(=O)C(=CC=Cc2c(O)n(CCC)c(=S)n(CCC)c2=O)C(=O)N(CCC)C1=S [DiSBAC3(3)]
2. CCN1C(=O)C(=CC=Cc2c(O)n(CC)c(=S)n(CC)c2=O)C(=O)N(CC)C1=S [DiSBAC2(3)]

1. 0.0077
2. 0.078

###

# PROTOCOL TEXT: Octanol/water partition of DiBAC and DiSBAC dyes, read by absorption spectra
# Format: physicochemical
# CONDITIONS USED: 1:1 octanol/water partition
Can you tell me Absorbance in Water/Absorbance in Octanol for the items I'm about to list?
One number for each entry.

MOLECULE: CCN1C(=O)C(=CC=Cc2c(O)n(CC)c(=S)n(CC)c2=O)C(=O)N(CC)C1=S [DiSBAC2(3)]
RESULT VALUE: 0.0052

Required: Absorbance in Water/Absorbance in Octanol, one value per molecule below.
1. CCCN1C(=O)C(=CC=Cc2c(O)n(CCC)c(=S)n(CCC)c2=O)C(=O)N(CCC)C1=S [DiSBAC3(3)]
2. CN1C(=O)C(=CC=Cc2c(O)n(C)c(=S)n(C)c2=O)C(=O)N(C)C1=S [DiSBAC1(3)]
3. CCCCN1C(=O)C(=CC=Cc2c(O)n(CCCC)c(=O)n(CCCC)c2=O)C(=O)N(CCCC)C1=O [DiBAC4(3)]
4. CN1C(=O)C(=CC=Cc2c(O)n(C)c(=O)n(C)c2=O)C(=O)N(C)C1=O [DiBAC1(3)]

0.0005
0.0674
0.00088
4.179
